src = PubChem BioAssay AID1159536

System: Chlamydomonas reinhardtii, Nile Red lipid fluorescence, 72 h
Experiment: compounds raising TAG storage in Chlamydomonas – qHTS, Chlamydomonas reinhardtii, dose response (AID 1159536)
Results filed as inconclusive are left out. Calls of active or inactive are those of the source. No rule for the calls is given here.
Assign a class; possible classes are active, inactive

# count of solved cases: 8
>  <molecule>
Cc1ccc(CN2CCCC(CO)C2)cc1 (centres undefined)

>  <assigned_category>
active

$$$$
>  <molecule>
Fc1ccc(N2CCN(Cc3ccccc3)CC2)cc1

>  <assigned_category>
active

$$$$
>  <molecule>
CN1CCN(Cc2ccc(-c3ccccc3Cl)o2)CC1

>  <assigned_category>
active

$$$$
>  <molecule>
C=C(C)CN(CC)C(=O)C1CCN(CC2CC=CCC2)CC1 (centres undefined)

>  <assigned_category>
active

$$$$
>  <molecule>
Cc1ccc(OCCCN2CCOCC2)c(C)c1

>  <assigned_category>
active

$$$$
>  <molecule>
COc1ccc(C(=O)NCCN2CCOCC2)cc1[N+](=O)[O-]

>  <assigned_category>
inactive

$$$$
>  <molecule>
CCC(C)c1ccccc1OCCCN1CCOCC1 (centres undefined)

>  <assigned_category>
active

$$$$
>  <molecule>
CCC(C)c1ccc(OCCN2CCCC2)cc1 (centres undefined)

>  <assigned_category>
active

$$$$

Could you check what this test reported for Cc1cccc(-c2noc(COc3ccc(Br)cc3)n2)c1 ?
inactive

Hi team, can someone confirm the assay call for Cc1ccc(CN2CCC(C(=O)N3CCN(c4ccccc4F)CC3)CC2)o1 ?
inactive

Check the results log: what was the call for CN1CCN(CCCOc2cc(Cl)ccc2Cl)CC1 ?
active

What was the test verdict on COc1ccc(CN2CCN(Cc3ccc([N+](=O)[O-])cc3)CC2)cc1OC ?
active

Outcome? Cc1ccc(NC(=O)CC(C)C)c(NC(=O)CC(C)C)c1
inactive

Just curious, what result did Cc1cc(I)ccc1S(=O)(=O)NCCCN1CCOCC1 get here?
active

Please state the recorded outcome for this molecule: Cc1cccc(OCCCCN2CCOCC2)c1
active
